experiment: adipocyte viability effects, profiling panel, cell-based, 3T3-L1 adipocytes, calcein-AM fluorescence, 48 h, basal (AID 1163); details: 3T3-L1 adipocytes viability, higher = more signal; further: test concentration not given here
measurement-label: z-score

Returns the measured z-score for the input molecule. Input: CC(C)(C)N1CC=CC23O[C@@H]4C=CCOC(=O)[C@@H]4[C@H]2C(=O)N(CCCCCO)[C@@H]3C1=O (stereo not given in full) 0.468

Returns the measured z-score for the input molecule. Input: O=C1O[C@H](c2ccccc2)[C@H](c2ccccc2)N2[C@H]1[C@@H](C(=O)O)[C@]1(C(=O)Nc3ccc(C#CC4=CCCCC4)cc31)[C@H]2c1ccc(OCCO)cc1 -0.774

Returns the measured z-score for the input molecule. Input: COC(=O)[C@@]1(Cc2ccccc2)[C@H]2c3cc(C(=O)N4CCCC4)n(C)c3C[C@H]2CN1C(=O)c1ccccc1 0.167

Returns the measured z-score for the input molecule. Input: Cc1ccc(S[C@]2(C(=O)NCCN3CCOCC3)CC(=O)N(Cc3cc(C(F)(F)F)cc(C(F)(F)F)c3)[C@@H]2c2ccc(CO)cc2I)cc1 0.712

Returns the measured z-score for the input molecule. Input: CC(C)c1ccc(NN2C(C(O)c3c(F)cccc3Cl)C=CC3C(=O)N(c4ccccc4)C(=O)C32)cc1 (stereo not given) 0.205
